Below, each entry is listed alongside its reported LC retention time.
assay: Waters SunFire C18, 150 × 2.1 mm, 3.5 µm, 25 °C, 0.25 mL/min, estimated dead time 1.3 min; A: water + 0.1% formic acid; B: methanol; gradient (min/%B) 0/5 30/100; details: stereoisomer not certain
Note to self: number, then unit, no commentary.

molecule: O=C1CC2OCC=C3CN4CCC56c7ccccc7N1C5C2C3CC46O (stereo not drawn)
LC retention time: 13.3 min
//
molecule: COC(=O)C1=COC(C)C2CN3CCC4(C(=O)Nc5cc(OC)c(OC)cc54)C3CC12 (stereo not drawn)
LC retention time: 15.8 min
//
molecule: CC=C1CN2C(C3=CC4C5CC6N(CCC67c6ccccc6N(C3=O)C47)CC5=CCO)CC34c5ccccc5N5C(=O)CC=C(C1CC23)C54 (stereo not drawn)
LC retention time: 15.3 min
//
molecule: C=CC1C(OC2OC(CO)C(O)C(O)C2O)OC2OC3CNC4CC1C2(C(=O)OC)C41Nc2ccccc2C31 (stereo not drawn)
LC retention time: 10.3 min
//
molecule: CC=C1CN2C3CC1C(CO)(C(=O)OC)C2Cc1c3n(C)c2ccccc12 (stereo not drawn)
LC retention time: 14.2 min
//
molecule: CCC1CN2CCc3c([nH]c4cc(OC)c(OC)cc34)C2CC1CCO (stereo not drawn)
LC retention time: 16.6 min

For the molecule COC(=O)N1c2ccc(OC)cc2C23CCN4C(=O)C=CC45CCC12C3C5 (stereo not drawn) , what LC retention time is on record? 28.1 min

For the molecule COc1cc2c(cc1OC)C13CCN(C)CC4=CCOC5CC(=O)N2C1C5C4CC3=O (stereo not drawn) , what LC retention time is on record? 13.1 min

For the molecule COC(=O)C1CC23CCCN4CCC5(c6cc(Cc7ccc8c(c7)C79CCN%10CCCC%11(CCC7(C(C(=O)OC)C%11)N8C)C%109)ccc6N(C)C15CC2)C43 (stereo not drawn) , what LC retention time is on record? 19.5 min

For the molecule C=CC(CO)C1CC[N+]2(C)CCc3c([nH]c4ccccc34)C2C1 (stereo not drawn) , what LC retention time is on record? 14.2 min

For the molecule COC(=O)C1CC23C=CCN4CCC5(c6ccccc6NC15C2C)C43 (stereo not drawn) , what LC retention time is on record? 13.5 min

For the molecule CCC12CCCN3CCc4c(n(c5ccccc45)C(O)(C(=O)OC)C1)C32 (stereo not drawn) , what LC retention time is on record? 20 min

For the molecule CC=C1C[N+]2(C)C3CC1C(C(=O)[O-])C2Cc1c3[nH]c2ccccc12 (stereo not drawn) , what LC retention time is on record? 15.6 min

For the molecule CC=C1CN2C3CC1C(C=O)C2Cc1c3[nH]c2ccccc12 (stereo not drawn) , what LC retention time is on record? 14.7 min

For the molecule CC=C1CN(C)C2Cc3c([nH]c4ccccc34)C(c3cc4[nH]c5c(c4cc3OC)CCN3CC4CC(CC)C3C5(C(=O)OC)C4)CC1C2C(=O)OC (stereo not drawn) , what LC retention time is on record? 17.5 min

For the molecule CC=C1CN(C)C2Cc3c(n(C)c4ccccc34)C(=O)CC1C2C(=O)OC (stereo not drawn) , what LC retention time is on record? 16.3 min

For the molecule COC(=O)C1CC23CCCN4CCC5(c6ccccc6N(C(=O)OC)C15CC2)C43 (stereo not drawn) , what LC retention time is on record? 26.9 min

For the molecule CC=C1CN2C3CC1C1(C(=O)OC)C2CC2(c4ccccc4N(C)C32)C1OC(=O)C=Cc1cc(OC)c(OC)c(OC)c1 (stereo not drawn) , what LC retention time is on record? 17.8 min
